test system: Leishmania donovani; experiment: MMV: Thermal shift assay for identifying inhibitors
parameter measured: ΔTm (°C)

COc1ccc(C(=O)NC(c2ccc(Cl)cc2Cl)c2cc(Cl)c3cccnc3c2O)cc1 (stereo not drawn); 2.4

a. Cc1ccc(Nc2nc(N)c3ccccc3n2)cc1Cl
b. O=C(NC1CCN(Cc2ccccc2)CC1)c1cc(-c2cccnc2)nc2ccc(Cl)cc12
stdin: Could you tell me which of a and b has the lower ΔTm reading? Respond with the label that goes with your answer.
stdout: b
(b: 2.4 °C, a: 4 °C)
